target: human full length PIK3KA H1047R mutant (p110α/p85α complex) (Homo sapiens, UniProt P42336, H1047R); construct: Recombinant, catalytically active human full length PIK3KA Wild-type and H1047R mutant were purchased as 1:1 complex; 6xHis (N); purchased EMD Millipore Sigma 14-792M; assay: PI3K-alpha kinase (PIK3CA) biochemical activity, H1047R mutant, ADP-Glo; details: PI3K-α (PIK3CA) biochemical, H1047R mutant, Soy PI lipid substrate
Sequence (P42336 whole entry H1047R): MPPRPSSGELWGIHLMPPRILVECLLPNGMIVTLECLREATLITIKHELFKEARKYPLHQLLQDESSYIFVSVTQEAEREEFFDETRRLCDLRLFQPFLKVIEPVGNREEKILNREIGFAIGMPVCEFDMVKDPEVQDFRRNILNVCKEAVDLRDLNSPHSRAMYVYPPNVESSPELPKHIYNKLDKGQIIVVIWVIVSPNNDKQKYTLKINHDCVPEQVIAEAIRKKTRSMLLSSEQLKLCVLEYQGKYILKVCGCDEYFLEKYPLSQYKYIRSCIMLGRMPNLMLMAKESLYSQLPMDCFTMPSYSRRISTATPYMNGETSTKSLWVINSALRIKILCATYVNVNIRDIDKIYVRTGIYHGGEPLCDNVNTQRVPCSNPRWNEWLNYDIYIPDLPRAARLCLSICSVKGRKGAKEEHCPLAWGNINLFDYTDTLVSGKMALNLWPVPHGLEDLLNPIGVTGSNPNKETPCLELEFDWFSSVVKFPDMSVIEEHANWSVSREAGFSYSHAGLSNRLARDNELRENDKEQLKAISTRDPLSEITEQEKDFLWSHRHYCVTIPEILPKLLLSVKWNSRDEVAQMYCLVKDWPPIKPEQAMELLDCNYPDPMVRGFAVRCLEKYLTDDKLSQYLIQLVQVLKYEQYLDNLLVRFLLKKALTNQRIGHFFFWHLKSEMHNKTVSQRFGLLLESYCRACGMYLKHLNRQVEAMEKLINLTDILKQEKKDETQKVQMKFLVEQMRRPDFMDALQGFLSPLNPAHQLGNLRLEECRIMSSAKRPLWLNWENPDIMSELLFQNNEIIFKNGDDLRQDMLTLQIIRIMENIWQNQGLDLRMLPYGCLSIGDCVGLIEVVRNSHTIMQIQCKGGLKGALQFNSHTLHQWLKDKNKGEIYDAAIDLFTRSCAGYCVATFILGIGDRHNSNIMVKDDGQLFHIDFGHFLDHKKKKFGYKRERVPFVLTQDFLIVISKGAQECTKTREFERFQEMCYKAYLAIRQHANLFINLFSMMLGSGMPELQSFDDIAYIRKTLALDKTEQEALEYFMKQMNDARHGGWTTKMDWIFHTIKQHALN
Sequence (P27986 whole entry partner): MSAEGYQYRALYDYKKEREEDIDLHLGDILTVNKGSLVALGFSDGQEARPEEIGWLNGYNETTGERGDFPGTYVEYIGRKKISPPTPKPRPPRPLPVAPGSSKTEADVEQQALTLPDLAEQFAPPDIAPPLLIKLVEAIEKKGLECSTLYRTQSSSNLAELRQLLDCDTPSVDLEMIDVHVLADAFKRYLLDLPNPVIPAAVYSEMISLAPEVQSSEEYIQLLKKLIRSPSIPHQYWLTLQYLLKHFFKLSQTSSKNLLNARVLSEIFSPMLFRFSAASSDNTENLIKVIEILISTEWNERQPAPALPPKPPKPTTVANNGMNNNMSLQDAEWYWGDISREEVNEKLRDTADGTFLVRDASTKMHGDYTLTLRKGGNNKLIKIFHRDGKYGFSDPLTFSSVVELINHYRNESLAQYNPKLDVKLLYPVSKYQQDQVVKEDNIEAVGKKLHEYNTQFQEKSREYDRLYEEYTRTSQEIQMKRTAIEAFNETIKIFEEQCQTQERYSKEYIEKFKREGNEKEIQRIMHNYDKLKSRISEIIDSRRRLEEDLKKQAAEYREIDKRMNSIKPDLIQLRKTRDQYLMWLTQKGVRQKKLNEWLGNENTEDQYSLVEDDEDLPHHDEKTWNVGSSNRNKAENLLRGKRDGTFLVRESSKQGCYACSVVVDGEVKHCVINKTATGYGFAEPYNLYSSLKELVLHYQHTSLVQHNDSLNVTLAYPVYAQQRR
Measured IC50 values are reported for all entries that follow.

Some entries whose results are on file:
# compound, IC50
records = [
    ("Cc1cc([C@@H](C)Nc2ccccc2C(=O)O)c2oc(-c3ccccc3)c(I)c(=O)c2c1", "< 500 nM"),
    ("Cc1cc(C(C)Nc2ccccc2C(=O)O)c2oc(-c3ccccc3)c(F)c(=O)c2c1 (stereo not shown) [Example 111]", "< 500 nM"),
]

# lookup: IC50 of Cc1cc([C@@H](C)Nc2ccccc2C(=O)O)c2oc(-c3ccc(F)cc3F)c(C)c(=O)c2c1
< 500 nM

# lookup: IC50 of Cc1cc([C@@H](C)Nc2ccccc2C(=O)O)c2oc(-c3ccc(F)c(F)c3)cc(=O)c2c1
< 500 nM

# lookup: IC50 of Cc1cc([C@@H](C)Nc2ccc(C(F)(F)F)cc2C(=O)O)c2oc(-c3ccccc3)c(C)c(=O)c2c1
500 to 1000 nM

# lookup: IC50 of Cc1cc(C(C)Nc2ccccc2C(=O)O)c2oc(-c3ccc(C4(C#N)CC4)cc3)cc(=O)c2c1 (single isomer, unassigned; isomer 2) [Example 53]
< 500 nM

# lookup: IC50 of Cc1cc([C@@H](C)Nc2ccc(C)nc2C(=O)O)c2oc(-c3ccccc3)cc(=O)c2c1
< 500 nM

# lookup: IC50 of Cc1cc(C(C)Nc2cccc(F)c2C(=O)O)c2oc(-c3ccccc3F)c(C)c(=O)c2c1 (stereo not shown) [Example 94]
< 500 nM

# lookup: IC50 of Cc1cc(C(C)Nc2ccc(C)nc2C(=O)O)c2oc(-c3ccccc3)c(C(F)(F)F)c(=O)c2c1 (stereo not shown)
< 500 nM

# lookup: IC50 of Cc1cc([C@@H](C)Nc2ccccc2C(=O)O)c2oc(-c3cccc(C#N)c3)c(C)c(=O)c2c1
< 500 nM

---

molecular target: human full length PIK3KA H1047R mutant (p110α/p85α complex) (Homo sapiens, UniProt P42336, H1047R); construct: Recombinant, catalytically active human full length PIK3KA Wild-type and H1047R mutant were purchased as 1:1 complex; 6xHis (N); purchased EMD Millipore Sigma 14-792M; experiment: PI3K-alpha kinase (PIK3CA) biochemical activity, H1047R mutant, ADP-Glo; conditions: PI3K-α (PIK3CA) biochemical, H1047R mutant, Soy PI lipid substrate
pIC50: −log10 of the molar value.
Measured pIC50 values are reported for all entries that follow.

# compound, assay value
data = [
    ("C[C@@H](Nc1ccccc1C(=O)O)c1cc(F)cc2c(=O)cc(-c3ccccc3)oc12 [Example 24]", "> 6.30"),
    ("Cc1c(-c2ccccc2)oc2c([C@@H](C)Nc3ccc(Cl)nc3C(=O)O)cc(C(F)(F)F)cc2c1=O [Example 91]", "> 6.30"),
    ("Cc1cc([C@@H](C)Nc2ccc(Cl)nc2C(=O)O)c2oc(-c3ccccc3)c(C(F)(F)F)c(=O)c2c1 [Example 139]", "> 6.30"),
    ("Cc1cc([C@@H](C)Nc2ccccc2C(=O)O)c2oc(-c3cccc(C(F)F)c3)c(C)c(=O)c2c1 [Example 73]", "> 6.30"),
    ("COc1ccc(-c2cc(=O)c3cc(C)cc([C@@H](C)Nc4ccccc4C(=O)O)c3o2)cc1 [Example 66]", "> 6.30"),
    ("Cc1cc([C@@H](C)Nc2ccccc2C(=O)O)c2oc(-c3cccc(-c4cn[nH]c4)c3)c(C)c(=O)c2c1 [Example 167]", "> 6.30"),
    ("COc1ccc(NC(C)c2cc(C)cc3c(=O)c(C)c(-c4ccccc4)oc23)c(C(=O)O)n1 (stereo not shown) [Example 89]", "> 6.30"),
    ("Cc1cc([C@@H](C)Nc2ccccc2C(=O)O)c2oc(-c3ccccc3)c(C(F)(F)F)c(=O)c2c1 [Example 70]", "> 6.30"),
    ("Cc1cc([C@@H](C)Nc2cccnc2C(=O)O)c2oc(-c3ccccc3)c(C)c(=O)c2c1 [Example 36]", "6.00 to 6.30"),
    ("Cc1cc([C@@H](C)Nc2ccc(Br)nc2C(=O)O)c2oc(-c3ccccc3)c(C)c(=O)c2c1 [Example 35]", "> 6.30"),
]

# lookup: pIC50 of Cc1cc([C@@H](C)Nc2ccc(Cl)cc2C(=O)O)c2oc(-c3ccc(F)c(F)c3)c(C)c(=O)c2c1 [Example 146]
5.30 to 6.00

# lookup: pIC50 of Cc1cc([C@@H](C)Nc2ccccc2C(=O)O)c2oc(-c3cccc(F)c3F)c(C)c(=O)c2c1 [Example 92]
> 6.30

# lookup: pIC50 of Cc1cc([C@@H](C)Nc2ccccc2C(=O)O)c2oc(-c3ccccc3F)c(C)c(=O)c2c1 [Example 44]
> 6.30

---

target: human full length PIK3KA H1047R mutant (p110α/p85α complex) (Homo sapiens, UniProt P42336, H1047R); construct: Recombinant, catalytically active human full length PIK3KA Wild-type and H1047R mutant were purchased as 1:1 complex; 6xHis (N); purchased EMD Millipore Sigma 14-792M; assay: PI3K-alpha kinase (PIK3CA) biochemical activity, H1047R mutant, ADP-Glo; details: PI3K-α (PIK3CA) biochemical, H1047R mutant, Soy PI lipid substrate
pIC50: −log10 of the molar value.
measure name: pIC50

Some entries whose results are on file:
# compound, pIC50
records = [
    ("COc1cccc(-c2cc(=O)c3cc(C)cc([C@@H](C)Nc4ccccc4C(=O)O)c3o2)c1", "> 6.30"),
    ("Cc1cc(C(C)Nc2ccccc2C(=O)O)c2oc(-c3ccc(N4CCCC4)cc3)cc(=O)c2c1 (single isomer, unassigned; isomer 1) [Example 54]", "6.00 to 6.30"),
    ("Cc1cc([C@@H](C)Nc2ccccc2C(=O)O)c2oc(-c3ccc(-c4ccn[nH]4)cc3)c(C)c(=O)c2c1", "> 6.30"),
    ("Cc1c(-c2ccccc2F)oc2c([C@@H](C)Nc3ccc(Cl)nc3C(=O)O)cc(C(F)(F)F)cc2c1=O", "> 6.30"),
    ("Cc1cc(C(C)Nc2ccccc2C(=O)O)c2oc(-c3ccc(C(=O)N(C)C)cc3)cc(=O)c2c1 (single isomer, unassigned; isomer 1) [Example 49]", "> 6.30"),
]

Now for a further compound.
# lookup: pIC50 of Cc1cc([C@@H](C)Nc2ccccc2C(=O)O)c2oc(-c3ccc(-c4cnn(C)c4)cc3)c(C)c(=O)c2c1
> 6.30

---

biological target: human full length PIK3KA Wild-type (p110α/p85α complex) (Homo sapiens, UniProt P42336); construct: Recombinant, catalytically active human full length PIK3KA Wild-type and H1047R mutant were purchased as 1:1 complex; 6xHis (N); purchased EMD Millipore Sigma 14-602M; assay: PI3K-alpha kinase (PIK3CA) biochemical activity, wild-type, ADP-Glo; conditions: PI3K-α (PIK3CA) biochemical, Soy PI lipid substrate
Sequence (P42336 whole entry): as the sequence (P42336 whole entry H1047R) above, with R1047H counted along it
Sequence (P27986 whole entry partner): as the sequence (P27986 whole entry partner) above
pIC50: −log10 of the molar value.
measure name: pIC50

Enter reported pIC50 observed with human full length PIK3KA Wild-type (p110α/p85α complex) (Homo sapiens, UniProt P42336) for Cc1cc([C@@H](C)Nc2ccc(F)cc2C(=O)O)c2oc(-c3ccccc3)c(C)c(=O)c2c1 [Example 58]
> 6.30

Enter reported pIC50 observed with human full length PIK3KA Wild-type (p110α/p85α complex) (Homo sapiens, UniProt P42336) for Cc1cc(C(C)Nc2ccc(Cl)nc2C(=O)O)c2oc(-c3ccccc3)c(I)c(=O)c2c1 (stereo not shown) [Example 140]
5.30 to 6.00

Enter reported pIC50 observed with human full length PIK3KA Wild-type (p110α/p85α complex) (Homo sapiens, UniProt P42336) for Cc1cc([C@@H](C)Nc2ccc(F)cc2C(=O)O)c2oc(-c3cccc(C#N)c3)c(C)c(=O)c2c1 [Example 129]
> 6.30

Enter reported pIC50 observed with human full length PIK3KA Wild-type (p110α/p85α complex) (Homo sapiens, UniProt P42336) for Cc1cc(C(C)Nc2ccccc2C(=O)O)c2oc(-c3ccccc3)c(F)c(=O)c2c1 (single isomer, unassigned; isomer 1) [Example 132]
5.30 to 6.00

Enter reported pIC50 observed with human full length PIK3KA Wild-type (p110α/p85α complex) (Homo sapiens, UniProt P42336) for Cc1c(-c2cccc(C#N)c2)oc2c([C@@H](C)Nc3ccc(Cl)nc3C(=O)O)cc(C(F)(F)F)cc2c1=O [Example 100]
6.00 to 6.30

Enter reported pIC50 observed with human full length PIK3KA Wild-type (p110α/p85α complex) (Homo sapiens, UniProt P42336) for Cc1cc(C(C)Nc2ccccc2C(=O)O)c2oc(-c3ccc(S(C)(=O)=O)cc3)cc(=O)c2c1 (single isomer, unassigned; isomer 1) [Example 47]
< 5.00

Enter reported pIC50 observed with human full length PIK3KA Wild-type (p110α/p85α complex) (Homo sapiens, UniProt P42336) for COc1ccccc1-c1cc(=O)c2cc(C)cc([C@@H](C)Nc3ccccc3C(=O)O)c2o1 [Example 67]
< 5.00
